Please provide measured IC50 for the entries that follow.
target-entity: hGRP-receptor (Homo sapiens, UniProt P30550)
Sequence (P30550 whole entry): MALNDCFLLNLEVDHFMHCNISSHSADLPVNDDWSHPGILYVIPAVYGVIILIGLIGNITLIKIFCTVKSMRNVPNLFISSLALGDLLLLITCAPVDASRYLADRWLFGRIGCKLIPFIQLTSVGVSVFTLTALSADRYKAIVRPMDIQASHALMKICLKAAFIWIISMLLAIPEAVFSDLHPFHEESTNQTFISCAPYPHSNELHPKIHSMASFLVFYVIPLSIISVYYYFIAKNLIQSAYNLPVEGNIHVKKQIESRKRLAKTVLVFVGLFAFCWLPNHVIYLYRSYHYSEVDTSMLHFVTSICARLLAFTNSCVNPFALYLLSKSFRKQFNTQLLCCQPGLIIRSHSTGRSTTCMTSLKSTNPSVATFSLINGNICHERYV
method-summary: [3H]inositol phosphate generation, hGRP-receptor transfected Balb 3T3 cells
Format: cell-based
Square brackets hold non-standard residues; d marks the D form. Peptide text beside a SMILES is read from it.

Lookup: Quote IC50 reported for CSCC[C@H](NC(=O)[C@@H](Cc1c[nH]c2ccccc12)NC(=O)[C@@H](Cc1c[nH]c2ccccc12)NC(=O)[C@H](Cc1ccccc1)NC(=O)[C@@H](Cc1c[nH]c2ccccc12)NC(=O)[C@H](CCC(N)=O)NC(=O)[C@H](CCC(N)=O)NC(=O)[C@H]1CCCN1)C(N)=O [Peptide 4, [D-Pro^4, D-Trp^7,9,10]SP-(4-11)] (H-[dP]QQ[dW]F[dW][dW]M-NH2) please.
Found: > 3 µM

Lookup: Quote IC50 reported for CC(Cc1c[nH]c2ccccc12)(NC(=O)Nc1ccc([N+](=O)[O-])cc1)C(=O)NCC1(c2ccccn2)CCCCC1 (stereo not drawn) [Peptide 34, reference compound] please.
Found: > 3 µM

Lookup: Quote IC50 reported for CSCC[C@H](NC(=O)[C@H](CC(C)C)NC(=O)[C@@H](Cc1ccccc1)NC(=O)CNC(=O)[C@@H](NC(=O)[C@H](C)NC(=O)[C@H](Cc1c[nH]c2ccccc12)NC(=O)[C@H](CCC(N)=O)NC(=O)[C@H](CC(N)=O)NC(=O)CNC(=O)[C@H](Cc1ccc(O)cc1)NC(=O)[C@H](CCCNC(=N)N)NC(=O)[C@H](CCC(N)=O)NC(=O)[C@@H]1CCC(=O)N1)C(C)C)C(N)=O [Peptide 2, [Tyr^4, D-Phe^12]Bn] please.
Found: > 10 µM
